READOUT TYPE: melting point

What value of measured melting point is listed for CCC(=O)c1sc(NC(=O)c2ccncc2)nc1-c1ccco1 ?
225 to 240 °C (dec.)

What value of measured melting point is listed for CCn1c(-c2sc(NC(=O)c3ccncc3)nc2-c2ccco2)cccc1=O ?
> 300 °C

What value of measured melting point is listed for COc1ccc(OC)c(C(=O)Nc2nc(-c3ccco3)c(C(=O)C3CCOCC3)s2)c1 ?
107 to 110 °C

What value of measured melting point is listed for Cc1ccc(C(=O)c2sc(NC(=O)c3ccc(C#N)cc3)nc2-c2ccco2)cn1 ?
261 to 265 °C

What value of measured melting point is listed for CN1CCC(OC(=O)Nc2nc(-c3ccco3)c(C(=O)c3ccccn3)s2)CC1 ?
222 to 225 °C

What value of measured melting point is listed for O=C(Nc1nc(-c2ccoc2)c(C(=O)C2CCOCC2)s1)c1ccc(F)cc1 ?
231 to 232 °C

What value of measured melting point is listed for CN(C)c1cccc(C(=O)Nc2nc(-c3ccco3)c(C(=O)C3CCOCC3)s2)c1 ?
239 to 243 °C

What value of measured melting point is listed for O=C(CCl)Nc1nc(-c2ccco2)c(C(=O)c2ccccn2)s1 ?
184 to 185 °C
